Target: Recombinant human IL-1β (BioLegend 579404) (human, UniProt P01584 117-269)
Experiment: cell-based or functional assay
Non-standard residues stand in square brackets, D forms with d. Trp(βS-Me,4-F) = C[C@@H](c1c[nH]c2cccc(F)c12)[C@H](N)C(=O)O; Bip(4'-COOH) = N[C@@H](Cc1ccc(-c2ccc(C(=O)O)cc2)cc1)C(=O)O; Ala(1-bicyclo(1.1.1)pentyl) = N[C@@H](CC12CC(C1)C2)C(=O)O; dPro(4R-Bzl(4-F)) = O=C(O)[C@H]1C[C@@H](Cc2ccc(F)cc2)CN1; Ala(pyrimidin-5-yl) = N[C@@H](Cc1cncnc1)C(=O)O; Phe(4-COOH) = N[C@@H](Cc1ccc(C(=O)O)cc1)C(=O)O; Pro(cis-4-F) = O=C(O)[C@@H]1C[C@H](F)CN1; d(αMeK) = C[C@@](N)(CCCCN)C(=O)O; Dab = NCC[C@H](N)C(=O)O; Aib = CC(C)(N)C(=O)O
A collection of binders and their measured MRC5 IC50
Numbers only; they are read as nM.

What value of MRC5 IC50 has been recorded for this entry: cyclo([Bip(4'-COOH)][Ala(1-bicyclo(1.1.1)pentyl)][Phe(4-COOH)]G[Pro(cis-4-F)][Trp(βS-Me,4-F)][Aib]SW[d(αMeK)][Ala(pyrimidin-5-yl)]Q[Dab]G[dPro(4R-Bzl(4-F))]) (ring closure inferred; not fully specified (bridges); printed as Bip4CO2H-AlaPent-Phe4COOH-G-Proc4F-SbMeW4F-Aib-S-W-daMeK-PyrimAla-Q-Dab-G-dProc4Bn4F, cyclic (macrolactam)) [SEQ ID NO: 145]
0.041
